# reported inhibition; entries follow
target: cAMP-dependent protein kinase catalytic subunit alpha (Homo sapiens); assay: PKA catalytic subunit kinase inhibition – biochemical, ATP-depletion luminescence, Kemptide substrate, primary screen (AID 524); conditions: PKA Kemptide phosphorylation, Kinase-Glo ATP luminescence; at 6 µM; stronger effect = higher value
Out of some 65,000 compounds screened, about 95 (0.1%) were called active. For the sample, actives were picked, then their nearest neighbours and some compounds at random.
MEASUREMENT_NAME: inhibition (%)

>>> print(df.to_string())
                                   compound  measured
0  O=C1c2ccccc2C(Nc2ccc3c(c2)OCCO3)N1Cc1ccco1 (configuration not stated)      -9.3
1              O=C(Nc1cccnc1)c1noc2c1CCCCC2      -2.8
2  CCOc1ccc(NC(=O)CSc2nc3c(c(=O)n2-c2ccccc2OC)SCC3)cc1      -2.3
3  Cc1ccc(-n2nc3c(c2NC(=O)CCC2CCCCC2)CS(=O)C3)cc1 (configuration not stated)      -4.5
4            COC(=O)c1ccc(NC(=O)c2ccco2)cc1      -3.7
5     CCCn1c(SCC(=O)Nc2c(C)cccc2C)nnc1C(C)C       4.9
6  COc1ccc(C)c2sc(=NC(=O)c3ccc(C#N)cc3)n(C)c12       3.2

* * *

biological target: cAMP-dependent protein kinase catalytic subunit alpha (Homo sapiens); test: PKA catalytic subunit kinase inhibition – biochemical, ATP-depletion luminescence, Kemptide substrate, primary screen (AID 524); conditions: PKA Kemptide phosphorylation, Kinase-Glo ATP luminescence; at 6 µM; stronger effect = higher value
Out of some 65,000 compounds screened, about 95 (0.1%) were called active. This excerpt belongs to a sample that is enriched for actives.
# reported inhibition; entries follow
MEASUREMENT_NAME: inhibition (%)

                                    molecule                               measured_on  measurement_unit  measured
 0   Cn1c(=NC(=O)CSCC(=O)N2CCOCC2)sc2ccccc21  cAMP-dependent protein kinase catalytic subunit alpha (Homo sapiens)                 %       7.1
 1  Cc1cccc(N2CCN(C(=O)C3CCN(S(=O)(=O)c4cnc[nH]4)CC3)CC2)c1C  cAMP-dependent protein kinase catalytic subunit alpha (Homo sapiens)                 %       9.6
 2  Cn1c(SCC(=O)Nc2cccc(NC(=O)c3cccs3)c2)nnc1-c1ccncc1  cAMP-dependent protein kinase catalytic subunit alpha (Homo sapiens)                 %      12.7
 3  Cc1cccc(CC(=O)Nc2c3c(nn2-c2cccc(Cl)c2)CS(=O)C3)c1 (stereo unspecified)  cAMP-dependent protein kinase catalytic subunit alpha (Homo sapiens)                 %       9.5
 4  Cc1ccn2cc(C(=O)NC3CCN(Cc4ccccc4)CC3)nc2c1  cAMP-dependent protein kinase catalytic subunit alpha (Homo sapiens)                 %       4.5
 5  CSc1ccc(NC(=O)N2CC(C)OC(C)C2)cc1 (stereo unspecified)  cAMP-dependent protein kinase catalytic subunit alpha (Homo sapiens)                 %      10.1
 6  O=C(Nc1ccc(S(=O)(=O)N2CCCC2)cc1Cl)C1=COCCO1  cAMP-dependent protein kinase catalytic subunit alpha (Homo sapiens)                 %      -4.1
 7  CC(C)(C)NC(=O)C(c1ccco1)N(Cc1ccc2c(c1)OCO2)C(=O)Cn1nnc2ccccc21 (stereo unspecified)  cAMP-dependent protein kinase catalytic subunit alpha (Homo sapiens)                 %      -2.7
 8            CCOc1cc(/C=N/n2cnnc2)c(Br)cc1O  cAMP-dependent protein kinase catalytic subunit alpha (Homo sapiens)                 %       6.7
 9         CCOc1ccc(C(=O)Nc2cc(OC)ccc2OC)cc1  cAMP-dependent protein kinase catalytic subunit alpha (Homo sapiens)                 %      -1.4
10         Cc1ccccc1-n1nnc2c(=O)oc3ccccc3c21  cAMP-dependent protein kinase catalytic subunit alpha (Homo sapiens)                 %       7.5
